The values you see were collected from patent US20230312473A1.

Experiment: Solubility of compound 1 in the solvent under evaluation at 22° C. and 65° C. (crystallization study)
Format: physicochemical
Conditions: DMA, 22 °C, organic solvent or mixture, thermodynamic from solid, solvent: DMA; read-out: Solubility at 22° C.
property-name: solubility

What does the record list as solubility for `Nc1ncc(-c2cc(N3C[C@@H]4C[C@H]3CO4)nc(N3CCC(F)(F)C3)n2)cc1OC(F)F` ?
> 200 mg/mL

---

Assay: Solubility of compound 1 in the solvent under evaluation at 22° C. and 65° C. (crystallization study)
Assay type: physicochemical
Details: n-Heptane, 65 °C, organic solvent or mixture, thermodynamic from solid, solvent: n-Heptane; read-out: Solubility at 65° C.
property-name: solubility

GET /values?readout=solubility&item= `Nc1ncc(-c2cc(N3C[C@@H]4C[C@H]3CO4)nc(N3CCC(F)(F)C3)n2)cc1OC(F)F`
< 50 mg/mL
